Molecular target: T1, full-length human 14-3-3γ fused to the C terminus of MBP (human, UniProt P61981 1-247)
T1 chain: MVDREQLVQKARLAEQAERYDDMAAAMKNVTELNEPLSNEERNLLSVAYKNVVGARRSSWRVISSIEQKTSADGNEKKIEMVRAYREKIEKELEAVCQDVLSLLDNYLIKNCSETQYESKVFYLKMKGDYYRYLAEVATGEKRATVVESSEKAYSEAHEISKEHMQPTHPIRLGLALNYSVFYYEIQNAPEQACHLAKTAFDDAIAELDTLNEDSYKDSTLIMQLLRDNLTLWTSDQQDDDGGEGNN
Test: FP; with FSC
Non-standard residues stand in square brackets, D forms with d. No end group written: not given here. *: point of attachment. FITC = O=C1OC2(c3ccc(O)cc3Oc3cc(O)ccc32)c2ccc(NC(=S)*)cc21; Biotin = O=C1N[C@H]2[C@H](CS[C@H]2CCCCC(=O)*)N1; pT = C[C@@H](OP(=O)(O)O)[C@H](N)C(=O)O; ttds = NCCCOCCOCCOCCCNC(=O)CCC(=O)*; pS = N[C@@H](COP(=O)(O)O)C(=O)O
Entries annotated with measured Kd
Metric Name: Kd (µM)

[[record]]
binder = "{Biotin-ttds}-RLQRRRE[pT]QV [HPV18 E6 phospho-PBM peptide p18E6]"
number = 19.3

[[record]]
binder = "{Biotin-ttds}-SSRTRRE[pT]QL [HPV16 E6 phospho-PBM peptide p16E6]"
number = 91.7

[[record]]
binder = "{FITC}-WLRRA[pS]APLPGLK [fluorescently labeled HSPB6 phosphopeptide (fpB6)]"
number = 4.4

